Quick list: EOSINOPHIL per entry.
Species: Rattus norvegicus
procedure-details: DrugMatrix - Regimen: Daily Repeat
Assay type: toxicity, organism-based, Sprague-Dawley
Set-up: regimen Daily Repeat, gender Male, age 6-8 weeks
condition: in vivo, po, 10 mg/kg, 120 h, tissue Blood, route oral GAVAGE, dose level Low, time 5 day, vehicle .5 % CMC

These recorded examples may help you get a feel for the data.
I'd like to know its EOSINOPHIL. The molecule in question is CNCCC(Oc1ccc(C(F)(F)F)cc1)c1ccccc1 (centres undefined)
0.33%

I'd like to know its EOSINOPHIL. The molecule in question is "Fc1ccc(C(c2ccc(F)cc2)N2CCN(C/C=C/c3ccccc3)CC2)cc1"
0.67%

I'd like to know its EOSINOPHIL. The molecule in question is O=C1C(CC[S+]([O-])c2ccccc2)C(=O)N(c2ccccc2)N1c1ccccc1 (centres undefined)
0%

More entries:
I'd like to know its EOSINOPHIL. The molecule in question is "O=C1CN=C(c2ccccc2Cl)c2cc([N+](=O)[O-])ccc2N1"
0.33%

====

Species on record: Rattus norvegicus
procedure-details: DrugMatrix - Regimen: Daily Repeat
Format: toxicity, organism-based, Sprague-Dawley
Parameters: regimen Daily Repeat, gender Male, age 6-8 weeks
condition: in vivo, po, 0 mg/kg, 72 h, tissue Blood, route oral GAVAGE, dose level Control, time 3 day, vehicle 100 % WATER
attribute-measured: MEAN CORPUSCULAR VOLUME
The answer should read as a number with its unit following.

These recorded examples may help you get a feel for the data.
I'd like to know its MEAN CORPUSCULAR VOLUME. The compound in question is CCN(CC)CCNC(=O)c1cc(S(C)(=O)=O)ccc1OC [TIAPRIDE]
63.85 fL

I'd like to know its MEAN CORPUSCULAR VOLUME. The compound in question is C[C@]12C=CC(=O)C=C1CC[C@@H]1[C@@H]2[C@@H](O)C[C@@]2(C)[C@H]1CC[C@]2(O)C(=O)CO [PREDNISOLONE]
61.23 fL

I'd like to know its MEAN CORPUSCULAR VOLUME. The compound in question is CC(C)(C)CC(C)(C)c1ccc(OCCOCC[N+](C)(C)Cc2ccccc2)cc1.[Cl-] [BENZETHONIUM CHLORIDE]
63.07 fL

More entries:
I'd like to know its MEAN CORPUSCULAR VOLUME. The compound in question is Cn1c(=O)c2[nH]cnc2n(C)c1=O.O [THEOPHYLLINE]
62.05 fL

I'd like to know its MEAN CORPUSCULAR VOLUME. The compound in question is O.O.O.O.O.O.[Cl-].[Cl-].[Sr+2] [STRONTIUM CHLORIDE HEXAHYDRATE]
63.85 fL

====

Species on record: Rattus norvegicus
procedure-details: DrugMatrix - Regimen: Daily Repeat
Format: toxicity, organism-based, Sprague-Dawley
Set-up: regimen Daily Repeat, gender Male, age 6-8 weeks
condition: in vivo, po, 1500 mg/kg, 120 h, tissue Blood, route oral GAVAGE, dose level High, time 5 day, vehicle .5 % CMC
Quick list: HEMOGLOBIN per entry.
The answer should read as a number with its unit following.

I'd like to know its HEMOGLOBIN. The compound in question is "O=c1cnn([C@@H]2O[C@H](CO)[C@@H](O)[C@H]2O)c(=O)[nH]1"
11.57 G/DL

I'd like to know its HEMOGLOBIN. The compound in question is "CC(C)Oc1ccc2c(=O)c(-c3ccccc3)coc2c1"
14.03 G/DL

I'd like to know its HEMOGLOBIN. The compound in question is "CN(C)[C@@H]1C(O)=C(C(N)=O)C(=O)[C@@]2(O)C(O)=C3C(=O)c4c(O)ccc(Cl)c4[C@@](C)(O)[C@H]3C[C@@H]12"
13.93 G/DL

I'd like to know its HEMOGLOBIN. The compound in question is COC(=O)Nc1nc2ccc([S+]([O-])c3ccccc3)cc2[nH]1 (stereo not given)
13.2 G/DL

More entries:
I'd like to know its HEMOGLOBIN. The compound in question is "CC(C)=CCC/C(C)=C/CO"
14.67 G/DL
